- experimental_details: Inhibition of EGFR triple T790M/L858R/C797S mutant (unknown origin) expressed in mouse Ba/F3 cells assessed as reduction in cell growth incubated for 72 hrs in presence of 1 ug/ml Cetuximab by celltiter-glo luminescent cell viability assay
pIC50: −log10 of the molar value.
Each item that follows carries a reported pIC50.

{"compound_string": "O=C1c2cc(-c3ccc(N4CCNCC4)cc3)ccc2Nc2ccc(F)cc2N1Cc1ccccc1", "pIC50": 6.03}
{"compound_string": "CN1CCN(c2ccc(Oc3ccc4c(c3)C(=O)N(Cc3ccccc3)c3cc(F)ccc3N4)cc2)CC1", "pIC50": 6.70}
